Origin of values: patent US20170152239A1

We begin with a simple list: items and their reported log10 of IC50.
# measurementTarget: WT EZH2 (EZH2 4 protein complex: EZH2, EED, SUZ12, RbAp48) (Homo sapiens, UniProt O75530+Q09028+Q15022+Q15910)
# Sequence (Q15910 whole entry): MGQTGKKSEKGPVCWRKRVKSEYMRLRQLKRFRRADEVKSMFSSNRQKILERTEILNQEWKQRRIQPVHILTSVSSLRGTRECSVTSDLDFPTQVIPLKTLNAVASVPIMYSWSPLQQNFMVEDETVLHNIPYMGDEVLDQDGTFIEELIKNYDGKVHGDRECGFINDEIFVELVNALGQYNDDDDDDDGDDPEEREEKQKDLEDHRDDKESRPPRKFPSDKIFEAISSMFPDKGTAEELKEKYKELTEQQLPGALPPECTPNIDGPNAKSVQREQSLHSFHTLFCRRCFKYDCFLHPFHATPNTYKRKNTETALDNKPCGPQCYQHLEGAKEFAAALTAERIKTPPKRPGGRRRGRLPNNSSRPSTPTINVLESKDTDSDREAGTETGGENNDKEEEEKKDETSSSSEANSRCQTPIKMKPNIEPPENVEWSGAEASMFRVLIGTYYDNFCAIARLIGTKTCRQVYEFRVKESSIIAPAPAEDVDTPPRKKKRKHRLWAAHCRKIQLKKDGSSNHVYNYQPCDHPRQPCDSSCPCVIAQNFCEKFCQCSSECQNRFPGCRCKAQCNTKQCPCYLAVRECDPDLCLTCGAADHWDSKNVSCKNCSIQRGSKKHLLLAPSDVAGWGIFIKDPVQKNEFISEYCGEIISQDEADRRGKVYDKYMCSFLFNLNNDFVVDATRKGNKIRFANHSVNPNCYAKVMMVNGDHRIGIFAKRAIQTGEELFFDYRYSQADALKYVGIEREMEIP
# Sequence (O75530 whole entry partner): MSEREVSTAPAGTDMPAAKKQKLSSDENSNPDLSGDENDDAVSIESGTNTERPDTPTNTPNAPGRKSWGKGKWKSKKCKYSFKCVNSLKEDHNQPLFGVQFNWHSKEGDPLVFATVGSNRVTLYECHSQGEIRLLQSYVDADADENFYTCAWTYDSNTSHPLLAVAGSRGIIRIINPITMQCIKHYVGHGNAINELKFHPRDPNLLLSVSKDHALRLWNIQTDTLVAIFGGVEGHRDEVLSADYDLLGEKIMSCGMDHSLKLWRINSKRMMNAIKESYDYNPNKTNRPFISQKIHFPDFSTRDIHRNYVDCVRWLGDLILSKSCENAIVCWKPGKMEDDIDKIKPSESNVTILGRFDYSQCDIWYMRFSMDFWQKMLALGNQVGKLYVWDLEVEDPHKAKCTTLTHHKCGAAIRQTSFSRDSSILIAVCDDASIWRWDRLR
# Sequence (Q15022 whole entry partner): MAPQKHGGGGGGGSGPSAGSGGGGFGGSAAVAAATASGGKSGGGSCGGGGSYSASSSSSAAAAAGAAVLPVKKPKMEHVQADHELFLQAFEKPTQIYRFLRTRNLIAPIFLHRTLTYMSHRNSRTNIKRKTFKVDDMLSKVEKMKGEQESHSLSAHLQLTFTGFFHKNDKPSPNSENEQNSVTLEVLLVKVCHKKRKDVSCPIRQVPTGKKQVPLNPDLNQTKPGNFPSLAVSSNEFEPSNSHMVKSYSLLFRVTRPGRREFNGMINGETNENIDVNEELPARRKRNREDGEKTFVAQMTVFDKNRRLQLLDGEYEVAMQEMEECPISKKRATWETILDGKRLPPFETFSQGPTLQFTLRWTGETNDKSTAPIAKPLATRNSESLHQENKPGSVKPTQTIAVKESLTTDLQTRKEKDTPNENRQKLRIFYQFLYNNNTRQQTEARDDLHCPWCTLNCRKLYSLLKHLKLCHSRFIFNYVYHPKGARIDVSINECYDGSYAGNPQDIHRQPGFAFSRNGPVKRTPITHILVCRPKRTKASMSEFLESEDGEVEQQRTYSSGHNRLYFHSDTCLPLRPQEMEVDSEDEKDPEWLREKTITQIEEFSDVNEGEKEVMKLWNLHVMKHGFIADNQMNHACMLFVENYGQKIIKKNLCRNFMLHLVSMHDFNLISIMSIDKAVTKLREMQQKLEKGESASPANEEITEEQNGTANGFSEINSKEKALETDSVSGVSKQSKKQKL
# Sequence (Q09028 whole entry partner): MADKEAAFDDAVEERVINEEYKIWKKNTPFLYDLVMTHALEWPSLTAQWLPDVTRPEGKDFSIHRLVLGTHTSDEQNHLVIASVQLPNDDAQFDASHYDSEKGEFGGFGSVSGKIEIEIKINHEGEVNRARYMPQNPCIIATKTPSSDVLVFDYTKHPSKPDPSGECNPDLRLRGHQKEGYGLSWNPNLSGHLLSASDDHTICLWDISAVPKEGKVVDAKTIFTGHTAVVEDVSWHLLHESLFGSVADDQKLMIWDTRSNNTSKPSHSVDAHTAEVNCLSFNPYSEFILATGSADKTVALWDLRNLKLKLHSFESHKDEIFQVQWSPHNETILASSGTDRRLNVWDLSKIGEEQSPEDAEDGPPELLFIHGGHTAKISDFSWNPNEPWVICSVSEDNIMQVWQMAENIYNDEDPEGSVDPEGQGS
# methodDescription: WT EZH2 nucleosome assay
# Assay type: biochemical
# details: nucleosome assay, 5 nM EZH2 4-protein complex, 1.5 μM SAM; read-out: WT EZH2 IC50
readoutLabel: log10 of IC50 (log10 of the value in µM)

INSERT INTO assay_data (compound, measurement) VALUES
  ('Cc1cc(C)c(CNC(=O)c2ccnc(OC(C)C)c2Cl)c(=O)[nH]1', 0.65),
  ('CCCc1cc(C)[nH]c(=O)c1CNC(=O)c1cc(Cl)cc(-c2ccnn2C)c1C', -0.06),
  ('Cc1cc(C)c(CNC(=O)c2ncnc(N3[C@@H](C)COC[C@@H]3C)c2C)c(=O)[nH]1', 1.04),
  ('Cc1cc(C)c(CNC(=O)c2ncnc(-c3ccnn3C)c2C)c(=O)[nH]1', 1.69),
  ('Cc1cc(C)c(CNC(=O)c2ncnc(N3CCCC3C(F)(F)F)c2C)c(=O)[nH]1 (centres unmarked)', 0.40),
  ('Cc1cc(C)c(CNC(=O)c2cc(-c3ccc(N4CCN(C)CC4)nc3)cc(-c3ccnn3C)c2C)c(=O)[nH]1', -1.47),
  ('Cc1cc(C)c(CNC(=O)c2nc(N3C[C@@H]4C[C@H]3CO4)nc(N3CCC[C@@H]3C)c2C)c(=O)[nH]1', 0.55),
  ('CCc1cnn(C)c1-c1cccc(C(=O)NCc2c(C)cc(C)[nH]c2=O)c1C', -0.06);

###

Measured pIC50 by item
# measurementTarget: WT EZH2 (EZH2 4 protein complex: EZH2, EED, SUZ12, RbAp48) (Homo sapiens, UniProt O75530+Q09028+Q15022+Q15910)
# methodDescription: WT EZH2 nucleosome assay
# Type: biochemical
# details: nucleosome assay, 5 nM EZH2 4-protein complex, 1.5 μM SAM; read-out: WT EZH2 IC50
pIC50: −log10 of the molar value.
readoutLabel: pIC50

INSERT INTO assay_data (compound, qualifiersign, measurement) VALUES
  ('COc1cccc(C(=O)NCc2c(C)cc(C)[nH]c2=O)c1C#N [Example 135]', '=', 3.85),
  ('CC(=O)N[C@H]1CCN(c2ncnc(C(=O)NCc3c(C)cc(C)[nH]c3=O)c2C)C1 [Example 143]', '<', 3.70),
  ('Cc1cc(C)c(CNC(=O)c2nc(-c3cnn(C)c3)nc(N3CCOC[C@@H]3C)c2C(F)(F)F)c(=O)[nH]1 [Example 104]', '=', 4.71),
  ('CNc1ncc(-c2cc(C(=O)NCc3c(C)cc(C)[nH]c3=O)c(C)c(-c3ccnn3C)c2)cn1 [Example 14]', '=', 7.57),
  ('Cc1cc(C)c(CNC(=O)c2cc(-c3ccc(CN4CCOCC4)cc3)cc(-c3ccnn3C)c2C)c(=O)[nH]1 [Example 150]', '=', 6.95),
  ('Cc1cc(C)c(CNC(=O)c2ncnc(N3CCN(C)C[C@@H]3C)c2C)c(=O)[nH]1 [Example 67]', '=', 5.31),
  ('Cc1cc(C)c(CNC(=O)c2cc(C3=CCOCC3)cc(-c3ccnn3C)c2C)c(=O)[nH]1 [Example 20]', '=', 6.72),
  ('Cc1cc(C)c(CNC(=O)c2ncnc(N3CCN(c4ncccn4)C[C@@H]3C)c2C)c(=O)[nH]1 [Example 31]', '=', 6.85),
  ('Cc1cc(C)c(CNC(=O)c2ncnc(N3CCCC3C3CC3)c2C)c(=O)[nH]1 (stereo not shown) [Example 122]', '=', 4.36),
  ('CCOc1cccc(C(=O)NCc2c(C)cc(C)[nH]c2=O)c1F [Example 134]', '=', 3.90),
  ('Cc1cc(C)c(CNC(=O)c2ncnc(N3CCOCC3)c2C)c(=O)[nH]1 [Example 123]', '=', 4.35),
  ('Cc1cc(C)c(CNC(=O)c2nc(-c3ccc(N)nc3)nc(N3CCC[C@@H]3C)c2C)c(=O)[nH]1 [Example 45]', '=', 5.82),
  ('Cc1cc(C)c(CNC(=O)c2ccnc(-c3ccnn3C)c2Cl)c(=O)[nH]1 [Example 91]', '=', 4.92),
  ('Cc1cc(C(=O)NCc2c(C)cc(C)[nH]c2=O)c(C#N)c(OC(C)C)n1 [Example 99]', '=', 4.75),
  ('COc1ccc(OC)c(C(=O)NCc2c(C)cc(C)[nH]c2=O)c1OC [Example 140]', '<', 3.70),
  ('Cc1cc(C)c(CNC(=O)c2cc(Cl)cc(-n3c(C)nnc3C)c2C)c(=O)[nH]1 [Example 62]', '=', 5.37),
  ('Cc1cc(C)c(CNC(=O)c2cc(Cl)cc(-n3cnnc3C)c2C)c(=O)[nH]1 [Example 78]', '=', 5.14),
  ('Cc1cc(C)c(CNC(=O)c2cccc(-c3c(C)n[nH]c3C)c2C)c(=O)[nH]1 [Example 3]', '=', 6.04),
  ('CCC1CCCN1c1ncnc(C(=O)NCc2c(C)cc(C)[nH]c2=O)c1C (stereo not shown) [Example 95]', '=', 4.78);
